src = patent US20250171438A1

In this section, each of the compounds is paired with its reported AC50.
Molecular target: human PAH with the R408W mutation (Homo sapiens, UniProt P00439, R408W)
Construct: expressed in transfected cells
Sequence (P00439 1-452 R408W): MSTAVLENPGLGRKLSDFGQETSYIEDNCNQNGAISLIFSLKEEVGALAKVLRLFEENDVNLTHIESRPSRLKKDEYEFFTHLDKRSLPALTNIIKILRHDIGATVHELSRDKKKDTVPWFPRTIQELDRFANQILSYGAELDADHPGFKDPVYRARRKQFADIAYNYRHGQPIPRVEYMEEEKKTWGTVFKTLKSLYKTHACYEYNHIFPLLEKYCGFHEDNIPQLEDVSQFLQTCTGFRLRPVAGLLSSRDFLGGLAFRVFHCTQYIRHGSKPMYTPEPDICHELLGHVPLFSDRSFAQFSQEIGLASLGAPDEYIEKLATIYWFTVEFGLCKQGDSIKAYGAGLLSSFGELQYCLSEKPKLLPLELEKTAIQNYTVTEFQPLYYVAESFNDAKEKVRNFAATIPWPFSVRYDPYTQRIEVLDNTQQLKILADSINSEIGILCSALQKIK
Assay: Cell Based Phenylalanine Flux Assay
Conditions: A375 cells expressing human R408W PAH; 24 hrs with compound; 13C-Tyrosine by LC-MS; average where tested multiple times; read-out: AC50
metric: AC50

1. O=C(Cc1nccs1)N1CCc2[nH]cnc2C1c1nc2ccc(Cl)cc2[nH]1 (stereo not shown) :: > 5 µM
2. O=C(c1cnn2ccc(Br)cc12)N1CCc2[nH]cnc2C1c1nc2ccc(Cl)cc2[nH]1 (stereo not shown) :: 1 to 5 µM
3. O=C(c1nc2ccccc2[nH]1)N1CCc2[nH]cnc2[C@H]1c1nc2ccccc2[nH]1 :: 1 to 5 µM
4. CC(C)(O)c1cc(C(=O)N2CCc3[nH]cnc3C2c2nc3c(F)cccc3s2)no1 (stereo not shown) :: 1 to 5 µM
5. O=C(CCc1nccs1)N1CCc2nc[nH]c2C1c1nc2c(Cl)cccc2s1 (stereo not shown) :: 1 to 5 µM
6. Cc1nc(CCC2CC2)oc1C(=O)N1CCCc2[nH]cnc2C1c1nc2ccccc2s1 (stereo not shown) :: > 5 µM
7. CC(C)(O)Cn1ncc(C(=O)N2CCc3[nH]cnc3C2c2nc3c(F)cccc3s2)c1Cl (stereo not shown) :: > 5 µM
8. O=C(c1cnsc1)N1CCc2[nH]cnc2[C@H]1c1nc2ccccc2[nH]1 :: 1 to 5 µM
9. CC1CN(C(=O)c2cnco2)C(c2nc3c(F)cccc3s2)c2nc[nH]c21 (stereo not shown) :: > 5 µM
10. O=C(c1nccs1)N1CCc2[nH]cnc2C1c1nc2cccc(F)c2[nH]1 (stereo not shown) :: 1 to 5 µM

* * *

Biological target: human PAH with the R408W mutation (Homo sapiens, UniProt P00439, R408W)
Construct: expressed in transfected cells
Test: Cell Based Phenylalanine Flux Assay
Details: A375 cells expressing human R408W PAH; 24 hrs compound incubation; 13C-Tyrosine by LC-MS; average where tested multiple times; read-out: AC50
In this section, each of the compounds is paired with its reported AC50.
metric: AC50

1) COCc1ncc(C(=O)N2CCc3[nH]cnc3[C@@H]2c2nc3c(F)cccc3s2)s1 :: 1000 to 5000 nM
2) Cc1cccc2sc([C@@H]3c4nc[nH]c4CCN3C(=O)c3cncs3)nc12 :: 500 to 1000 nM
3) Cc1cccc2sc([C@@H]3c4nc[nH]c4CCN3C(=O)c3ccnn3C)nc12 :: 500 to 1000 nM
4) O=C(c1cnn2ccc(Cl)cc12)N1CCc2[nH]cnc2[C@H]1c1nc2ccc(F)cc2s1 :: < 500 nM
5) O=C(C1CC1(F)F)N1CCc2[nH]cnc2[C@H]1c1nc2ccccc2s1 (single isomer, unassigned) [Example 1287] :: > 5000 nM
6) Cc1nnc(C(=O)N2CCc3[nH]cnc3[C@@H]2c2nc3c(F)cccc3s2)o1 :: 1000 to 5000 nM
7) O=C(c1cncs1)N1CCc2[nH]cnc2[C@@H]1c1nc2cc(F)ccc2s1 :: > 5000 nM
8) Cc1nc(C(F)(F)F)oc1C(=O)N1CCc2[nH]cnc2[C@H]1c1nc2ccccc2s1 :: < 500 nM

* * *

Target: human PAH with the R408W mutation (Homo sapiens, UniProt P00439, R408W)
Construct: expressed in transfected cells
Assay: Cell Based Phenylalanine Flux Assay
Conditions: A375 cells expressing human R408W PAH; 24 hrs compound incubation; 13C-Tyrosine by LC-MS; average where tested multiple times; read-out: AC50
In this section, each of the compounds is paired with its reported AC50.
metric: AC50

1. O=C(c1ccon1)N1CCc2[nH]cnc2[C@H]1c1nc2ccc(Br)cc2[nH]1 :: < 0.5 µM
2. CC(C)(O)c1nc(C(F)(F)F)c(C(=O)N2CCc3[nH]cnc3[C@H]2c2nc3c(F)cccc3s2)o1 :: < 0.5 µM
3. Cc1nc(-c2cnn(C)c2)oc1C(=O)N1CCc2[nH]cnc2[C@H]1c1nc2c(F)cccc2s1 :: < 0.5 µM
4. Cc1ncoc1C(=O)N1CCCc2[nH]cnc2[C@@H]1c1nc2ccccc2s1 :: > 5 µM
5. Cc1nc(C)c(C(=O)N2CCc3[nH]cnc3[C@H]2c2nc3c(F)cccc3s2)o1 :: < 0.5 µM
6. O=C(c1ccnn1-c1ccccc1)N1CCc2[nH]cnc2[C@@H]1c1nc2c(F)cccc2s1 :: 1 to 5 µM
7. Cc1nnc(C(=O)N2CCc3[nH]cnc3[C@H]2c2nc3cccc(F)c3s2)s1 :: 0.5 to 1 µM
8. O=C(c1nnc(-c2ccc(F)cc2F)o1)N1CCc2[nH]cnc2[C@H]1c1nc2ccccc2s1 :: < 0.5 µM

* * *

Biological target: human PAH with the R408W mutation (Homo sapiens, UniProt P00439, R408W)
Construct: expressed in transfected cells
Assay: Cell Based Phenylalanine Flux Assay
Settings: A375 cells expressing human R408W PAH; 24 hrs with compound; 13C-Tyrosine by LC-MS; average where tested multiple times; read-out: AC50
metric: AC50

1) O=C(c1cnn2c(Br)cccc12)N1CCc2[nH]cnc2C1c1nc2ccc(Br)cc2[nH]1 (centres unmarked) :: > 5 µM
2) Cc1nc(C(C)(C)O)oc1C(=O)N1CC(C)c2[nH]cnc2C1c1nc2c(F)cccc2s1 (centres unmarked) :: > 5 µM
3) Cn1nc(C#N)cc1C(=O)N1CCc2[nH]cnc2C1c1nc2c(F)cccc2s1 (centres unmarked) :: > 5 µM
4) O=C(c1nc2ccccc2s1)N1CCc2[nH]cnc2C1c1nc2c(F)cccc2s1 (centres unmarked) :: 1 to 5 µM
5) Cn1nc(CO)cc1C(=O)N1CCc2[nH]cnc2C1c1nc2c(F)cccc2s1 (centres unmarked) :: 1 to 5 µM
6) O=C(N1CCC(c2ccccc2)C1)N1CCc2[nH]cnc2C1c1nc2ccccc2s1 (centres unmarked) :: > 5 µM
7) CC(C)(O)c1nsc(C(=O)N2CCc3[nH]cnc3C2c2nc3c(F)cccc3s2)n1 (centres unmarked) :: 1 to 5 µM
8) O=C(c1cnn2cc(CO)ccc12)N1CCc2[nH]cnc2C1c1nc2ccccc2s1 (centres unmarked) :: 1 to 5 µM
9) O=C(c1nnc(-c2ccc(C(F)(F)F)cc2)o1)N1CCc2[nH]cnc2C1c1nc2c(F)cccc2s1 (centres unmarked) :: 1 to 5 µM
10) O=C(C1CC1)N1CCc2[nH]cnc2C1c1nc2ccc(F)cc2[nH]1 (centres unmarked) :: 1 to 5 µM
11) CN1CCN(c2nnc(C(=O)N3CCc4[nH]cnc4C3c3nc4ccccc4s3)o2)CC1 (centres unmarked) :: 1 to 5 µM
12) O=C(CCc1nc(Cl)cs1)N1CCc2[nH]cnc2[C@H]1c1nc2ccccc2[nH]1 :: 1 to 5 µM
13) CN(C)CCc1nnc(C(=O)N2CCc3[nH]cnc3C2c2nc3ccccc3s2)o1 (centres unmarked) :: 1 to 5 µM
14) O=C(C1CC1)N1CCc2[nH]cnc2C1c1nc2cc(F)ccc2s1 (centres unmarked) :: > 5 µM
15) O=C(c1cnco1)N1CCc2[nH]cnc2C1c1nc2c(C(F)(F)F)cccc2s1 (centres unmarked) :: 1 to 5 µM
16) O=C(c1nnc(-c2ccccn2)o1)N1CCCc2[nH]cnc2C1c1nc2ccccc2s1 (centres unmarked) :: > 5 µM
17) O=C(Cc1nc(C(F)(F)F)cs1)N1CCc2[nH]cnc2C1c1nc2ccc(Br)cc2[nH]1 (centres unmarked) :: > 5 µM
18) O=C(c1nnc(CCC(F)(F)F)o1)N1CCc2[nH]cnc2C1c1nc2ccccc2s1 (centres unmarked) :: > 5 µM
19) CNCc1ccc2c(C(=O)N3CCc4[nH]cnc4C3c3nc4ccccc4s3)cnn2c1 (centres unmarked) :: > 5 µM
20) O=C(c1nccs1)N1CCc2[nH]cnc2C1c1nc2ccc(F)cc2[nH]1 (centres unmarked) :: > 5 µM

* * *

In this section, each of the molecules is paired with its reported AC50.
Target: human PAH with the R408W mutation (Homo sapiens, UniProt P00439, R408W)
Construct: expressed in transfected cells
Experiment: Cell Based Phenylalanine Flux Assay
Details: A375 cells expressing human R408W PAH; 24 hrs compound incubation; 13C-Tyrosine by LC-MS; average where tested multiple times; read-out: AC50
metric: AC50

1) O=C(c1cnn(-c2ccccn2)c1Cl)N1CCc2[nH]cnc2[C@@H]1c1nc2c(F)cccc2s1 [Example 1766] :: 1000 to 5000 nM
2) CCn1ncnc1C(=O)N1CCc2[nH]cnc2[C@H]1c1nc2c(F)cccc2s1 [Example 1959] :: < 500 nM
3) CC(C)(O)c1nnc(C(=O)N2CC3(CC3)c3[nH]cnc3[C@H]2c2nc3ccccc3s2)o1 [Example 1696] :: 500 to 1000 nM
4) O=C(c1nnc(-c2cn[nH]c2)o1)N1CCc2[nH]cnc2[C@H]1c1nc2c(F)cccc2s1 [Example 1863] :: 500 to 1000 nM
5) O=C(C1CC1)N1CCc2[nH]cnc2[C@@H]1c1nc2ccc(Cl)cc2[nH]1 [Example 959] :: > 5000 nM
6) CC(C)(F)c1ccc2c(C(=O)N3CCc4[nH]cnc4[C@@H]3c3nc4c(F)cccc4s3)cnn2c1 [Example 1490] :: 1000 to 5000 nM
7) O=C(c1nccs1)N1CCc2[nH]cnc2[C@H]1c1nc2cccc(Cl)c2[nH]1 [Example 984] :: 500 to 1000 nM
8) O=C(c1nnc(-c2ccccn2)o1)N1CCc2[nH]cnc2[C@H]1c1nc2cc(F)ccc2s1 [Example 1748] :: < 500 nM
